tested on: SK-MEL-2 melanoma; assay: NCI tumour cell line growth inhibition, 48 h
metric-name: TGI (µM)
Write the number in µM without appending the unit.

Check out these entries, answers already filled in.
# smiles-representation, unit-name, TGI
records = [
    ("CN1CCN(c2ccc3nc4c(nc3c2C(F)(F)F)C(=O)c2ncccc2C4=O)CC1", "µM", 4.34),
    ("CN(C)/C=N/S(=O)(=O)c1nn2c(C=O)c(-c3ccc([N+](=O)[O-])cc3)nc2s1", "µM", 51.3),
]

// next item, TGI requested
Query block: // TGI lookup, key: Cn1c2c(cc(-c3ccccc3)c1=O)COc1ccccc1-2
Result block: 30.4

###

tested on: NCI-H522 lung; experiment: NCI tumour cell line growth inhibition, 48 h
Consider the following compounds and their measured TGI readings.

The examples below pair each entry with its known result.
# compound, TGI
rows = [
    ("FC(F)(F)C1(C(F)(F)F)C2CCC3(CC(F)(F)C(F)(F)S3)C1C2 (stereo not drawn)", "> 100 µM"),
    ("c1cnc2c(c1)Nc1cnncc1S2", "> 100 µM"),
]

Query block: Tell me the measured TGI of COC(=O)C(=O)C1CCCCC(C2=NC3NN=C(N)N3C2=O)C1=O (stereo not drawn) , please.
Result block: > 100 µM

###

test system: ACHN renal; assay: NCI tumour cell line growth inhibition, 48 h; in the data active means GI50 below about 0.43 µM; inactive means the rest
Could you please pick one outcome from this set? true (1) = active, false (0) = inactive

Worked set:
# smiles-representation, system, answer-label
measured = [
    ("N#Cc1c(Oc2ccc(F)c(NC(=O)Cc3cccc(C(F)(F)F)c3)c2)ccc2nc(NC(=O)C3CC3)sc12", "ACHN renal", "false (0)"),
    ("O=C(/C=C/c1cccc(B(O)O)c1)c1cccc(B(O)O)c1", "ACHN renal", "false (0)"),
]

Query block: I would be grateful if you could indicate the recorded call for ClC1=C(Cl)C(Cl)=C(Cl)C1=Cc1ccc(Cl)cc1 .
Result block: true (1)

###

tested on: SNB-75 CNS; experiment: NCI tumour cell line growth inhibition, 48 h; in the data active means GI50 below about 0.43 µM; inactive means the rest
Pick from active, inactive when you respond.

# smiles-representation, system, answer-label
rows = [
    ("CC[C@@]1(OC(=O)CN)C(=O)OCc2c1cc1n(c2=O)Cc2cc3c(N)c4c(cc3nc2-1)OCO4", "SNB-75 CNS", "active"),
    ("Cc1sc(/N=C2/NC(=O)CS2)nc1-c1nc(/N=C2/NC(=O)CS2)sc1C", "SNB-75 CNS", "inactive"),
]

Query block: For Cc1c(N2C(=O)/C(=C\c3ccc(N(C)C)cc3)N=C2c2ccccc2)c(=O)n(-c2ccccc2)n1C , which call appears in the assay record?
Result block: inactive

Query block: Field: outcome | Entry: CCOC(=O)C(Cc1ccc(OC)cc1)C(=O)OCC
Result block: inactive

Query block: Record lookup: outcome of this test for COc1ccc(-c2cncn2-c2cc(OC)c(OC)c(OC)c2)cc1F ?
Result block: active

Query block: Field: outcome | Entry: CS[C@@]1(C(=O)Nc2ccc3[nH]nc(-c4ccc(OC(C)C)nc4)c3c2)CCN(CC(=O)N2CC=C(c3ccc(-c4ncn(C)n4)cc3)CC2)C1
Result block: inactive

Query block: I'd appreciate the recorded outcome for O=[N+]([O-])c1ccc(-c2ccccc2)c([As](=O)(O)O)c1 from this test.
Result block: inactive
